FYI, the data here is from the domain aggregation screens of Martell et al. (2025).

For each entry below, report its soluble fraction (log2) value.
Assay: soluble fraction after stress (log2 fold change); higher = more stays soluble; pooled small domains, quantitative proteomics
Conditions: stress: 50 degC
Answers are plain numbers.

Worked examples follow.
sequence_input=HMEVENAQLLARLTPQEHRVFERVVAGLSNREIGSEMDISIKTVEVHRARVMRKLEANSVAELVRFHIHN quantitative_readout=-2.25
sequence_input=HMKSLPQKLLAYLESQGLTRDEAGEFVKQGLKITSNDVDQIQLLLANTEVIDIKLQEFIAQK quantitative_readout=0.217
sequence_input=HMNMRVLSEQPNKKSYQDGNLRLKVFGASFKKSDILNEALNQARVEETGLQIPKLLEVKQIDGQWTIVTE quantitative_readout=-0.0363

# next sequence below
Q: Using the record for HMGTRPIQIASFSKEENAKRAVEALAKIGITAQPQKSGSATKAVWGVVANGDADLLAKIKAAGFADAYFL , report its soluble fraction (log2).
Result: 0.0667

---

Assay: soluble fraction after stress (log2 fold change); higher = more stays soluble; pooled small domains, quantitative proteomics
Details: stress: 50 degC
Kind request: treat -0.4 as inclusive, so soluble fraction (log2) at -0.4 or higher is Y, anything lower is N.

sequence_input=HMRQQSLHSLYRDHHSWLQNWLRRQLGNTWDAADLSQDTFIKVLASSQSVAEIREPRAYLLTVGKRL label_class=Y
sequence_input=HMESLNDRIKLVFKDSGLTQMDISKRLNIAQSSVSGIISGKANPSKRTLADIADRFDVNLEWLRDGTGPMK label_class=Y
sequence_input=HMGVGITAPLAGNIFKIVVQPGDVVASGDVVLVLEAMKMETEIRAASGGTVSQVLVREGDAVDAGHTLITL label_class=N
sequence_input=HMVDPRLRSLTPQERRILEHIAEGLTNRQIAEDMFLAEKTVKNYVTSILDKLGMDSRTQAAVYAATHPT label_class=Y
sequence_input=HMDAVSYTQFMQDAKAGRIKKVIVHQSGILDVTTTEGRRFNLTSPGDLWMVGDLVKDGVDVVGAP label_class=Y

Q: Does the sequence HMSTLKSALDEIPGIGAARKRALLNHFGSTRVISSVGVKDLEQVEGVSKKIALLIYGYFHDK have recorded soluble fraction (log2) that is -0.4 or more?
Result: N

Q: Exam item: decide whether the reported soluble fraction (log2) for HMAVNSALVQRNWLIGYRIAEEELQGDNRAEYGASIIKKLAKELTAEYGKGYTKTNLYHFYSFYKT is at least -0.4.
Result: Y

Q: Could you tell me if the measured soluble fraction (log2) of HMQGISGIERSLLDALAFEPAGLDALQARTGLDTPTLQALLMGLELQGHVARLPGSLFQRLVR reaches -0.4 or more?
Result: N

Q: Given HMTVVLPGESLTVNIIQEGKELGQGVGYLDDGTMVVIEDGRRYIDQTIEVTVTRVLQTVAGRMIFAQLT , state whether its soluble fraction (log2) is at least -0.4.
Result: N

Q: Could you please find out whether HMQKIYTIARGDTLSHIVAGTLKQQGIAYTTGELYRLVNVVAQYNDILNPNRIYTGHQLDLTPLYSED has soluble fraction (log2) that meets -0.4 or exceeds it?
Result: Y

Q: Is the recorded value of soluble fraction (log2) equal to or greater than -0.4 for this sequence? HMPKYLNIYHELAQRIQEGALPAETKLPSETELMQEFEASRGTVRKAIDALQEKGFVRKHQGKGVFVLSQ
Result: Y

Q: Check this sequence for soluble fraction (log2) at or above -0.4: HMWAVDFVLLDKDDQRIGNAVAYRDDRTKGMDEEVYRTVPEEELYASTGIQKQIFNSIYQLMAWKK
Result: Y

Q: Assess whether reported soluble fraction (log2) for HMGNLVDGINKKLTHVRDSLPEGYTLDEFKSAFQQQYPAAYDAYEGDKGKQFDKWLGNVIQSLPKK sits at -0.4 or higher.
Result: Y

Q: Tell me whether soluble fraction (log2) is at least -0.4 here: HMGNLASRVAEQLLDKMRGDSLVPGTRLPSEIAMAKHFGVSRTVMREAIARLKADGLLETRRGSGAFVLAT
Result: N

Q: soluble fraction (log2) >= -0.4 for HMEYSTLEIYSQTKKDLIEKSPHLNKVVYDKDDGYIYLLSFEKEDDLTSFKSNIENDSDIKRIEANV ?
Result: Y

Q: Threshold query (soluble fraction (log2) >= -0.4) on HMSRLQDAELQAQIDKMAGAMQLRDIPVYVQDIPTINGLAAPDGRVFITQGFIDKYKLGEVSAGEIASVI
Result: Y

---

Test: soluble fraction after stress (log2 fold change); higher = more stays soluble; pooled small domains, quantitative proteomics
Conditions: stress: 50 degC
# if value of soluble fraction (log2) reaches -0.5, tag class 1; if it stays below, tag class 0

// known answers, use as guide
sequence_input=HMSSQLETTFATLIGKRVSIRLHDPEGGFRDILGHLESPYSLRNRHGNLIEFAHDQIFLWREVI label_class="class 0"
sequence_input=HMSSPTAKATGSSVNIRKSASTGAAVLKRVEKGTVLEAVSISDGWVKVKYSGVTGYVSADYVKVSGL label_class="class 1"
sequence_input=HMVSATKAFVNGGNIVVSSPKATRVAVYNVAGQKVAEQAFAGKATIKASDFAKGIYVLKFNDNTVLKLT label_class="class 0"
sequence_input=HMQLTQEAIENLFKITTAKKFREELEKLVVTDSEKKAFAYFTVYHPKLKELPFAILKSVENYTGISI label_class="class 0"
sequence_input=HMRRTVIVTAAHAEIRERPDANAPLVFSAEQKVSLDYQETAPGGWVKVRHRDGQSGYVRTNQI label_class="class 0"
sequence_input=HMDSVVPNVVGMTAEKANKALTDAGLNVKITGATIGSGAVVHSQSIPAGTVTSKGTVVSIEMRFAAAEGD label_class="class 1"

Now examine the next entry.
Q: Hi team, for HMKILNYQSLVGKKGITKSMLRPAGIVEIEGRRYDVVTRGEFIEPGKMITVDEVQGNRIIVQIERE , is the recorded soluble fraction (log2) at or above -0.5?
Result: class 1

---

Test: soluble fraction after stress (log2 fold change); higher = more stays soluble; pooled small domains, quantitative proteomics
Settings: stress: 50 degC
For each entry below, report its soluble fraction (log2) value.
Give bare numbers.

See these solved cases before continuing.
sequence_input=HMELMKPPGYWQSLENAIYESKKVIKEHGFDTLPSSNKLRELDYHGLSRAISVHHSGFPNFREIMNQELGI quantitative_readout=0.172
sequence_input=HMLPDYLIELKKKADSGDAVSQNDIGNIYLYGLPRVNIYPDEKNIGIGIDYLYKAAWQDQVNAMTTI quantitative_readout=-0.0456
sequence_input=HMPEEGPSEDGNSFTAKFKLGSDVQGAMEQADAAAKAGLQDAGKGTGQITSRAQVGGYIYSTATA quantitative_readout=0.0661
sequence_input=HMKPDMAVIVGSRTLTFATTTDRQILVLRTDGTMVNRLSMKAGETRTITLPAGVYIVNGKKIIV quantitative_readout=-0.808
sequence_input=HMQELVPGKVFEGTVTEMKNGQVTLGLSDGKTISARMEQGVSLAKGQPMLFEVKSNTGEQIAIRPVVL quantitative_readout=0.169

Please state, for each entry, its recorded soluble fraction (log2).
1. HMAVSDPTAGGIKALMYPNPAQDRLSVALDIPAGLDKQAQMTVTDMMGRVVTQQQVTLNDGFQVFEL
2. HMDSQSVFADLVKSLSQKIASIPVWFEYTKNEQYDLISSYVSAKLKDLGVEFSQEEKEKFITMFMNS
3. HMEVGDTYLGKVTRVSSFGAFIEVLPGKEGLMRQNDAGEGGMPEVGDEVMVRVMEVDHLGRINLSGKLDD
4. HMSEKLTLEAANEAAGMRIDKWLAMQLPELSRSRIEALISGGGVVVNGKNPSKSLKLKGGEQIELEIPE
5. HMETLKEMDSKGAINASEVNVREGAGTSSSKMYSLSKGASVDVTGIKGDWYRVHTSKGTGYVLAKYVTLVS
6. HMTEDADIERRLTGILASAGWYRSLAVEVKEGIVYLDGATASGNHRDWAGSLAAKTEGVVAVVNRIEVQP
7. HMIKIEDILNVESVELSDSEYKKFLNGILINVKNLENGWAKVYSGNEFKGFGIVDKNLLKRKIVID
8. HMTGIRVYPNPTSSELRFSVATDAALYDATGARLRVVRGSDMMDIRDLASGTYYVRFADGSTQSVVVT

Result:
1. 0.215
2. -0.267
3. -0.0268
4. 0.0725
5. -0.0779
6. -0.238
7. -0.426
8. -0.198

---

Assay: soluble fraction after stress (log2 fold change); higher = more stays soluble; pooled small domains, quantitative proteomics
Conditions: stress: 50 degC
Task for the reader: assign each of the following sequences its reported soluble fraction (log2).
Give bare numbers.

Take a look at these entries with their results.
sequence_input=HMKKAMIISTKRGTPAAELDKIIREFEAKGLSVTMIRGTDYNVFGLVGDTTVIDEKQVRANPYVENVQRV measured_property="soluble fraction (log2)" quantitative_readout=0.135
sequence_input=HMNVSVSITKELQVYINDERISSSALESTLKSKLAGIENPTIILRAEEGVPIEKAVNVMDIANRNRYKIVL measured_property="soluble fraction (log2)" quantitative_readout=-0.522
sequence_input=HMPFTLDGVNEGSRNDQAARMSGYLISKNLNMDFIKFFMQSWNRQNSPPLSQREINSVVDNVKRTHDRKNK measured_property="soluble fraction (log2)" quantitative_readout=-1.18
sequence_input=HMIMDQTILRKQRELTDRLNRYRNEYYNHNKPSVSDEVYDRLFDELQSLEKETGVQMANSPTTTVG measured_property="soluble fraction (log2)" quantitative_readout=-0.0145
sequence_input=HMFDITKEVLKQSGLYNLYKNDESLEGINRIQNIEELLNGIKDFVENNEKSQASVSSFLQDVALATDQ measured_property="soluble fraction (log2)" quantitative_readout=0.126

I have 7 sequences here; please give me soluble fraction (log2) for each one.
1. HMPQLVGDVDGDGRVSVTDGEWIRASYGALPWYAGWRAAADLDGSRKIDVVDLELLRTKMGN
2. HMRNSFTVENTGERLDVFLTGQMPEFSRSHIQKLIASGQAWVNGVNRKGNFKLKPHDVVELEVPEPE
3. HMENWMPNLVNQDKRLAINTLRELGFTEEAGNLVIREETSEDVTKDYVISTDPVAETDLADVEKVTLVVSS
4. HMGVSVNVQPAILDWAMQKAQMGNAGSSVIEMIAKWISGEKAPTFNQIEDVSKKISIPFGFFFLKEPPIE
5. HMEASSTAIQAMIRRLIDDENPRKPLSDAKLADLLKSSGIPVARRTVAKYREAMNISASHERVRI
6. HMEMVSMPGLTGSTLEFATKTLTENELKYEVVYIVDASAESGLIIRTYPTEGEMVSKKTSTIYLYIKE
7. HMAESSPYTVRPGDTLWKILAQTQNARYNDFPYLYRKFRELNPNITDLNHIVSGQKIIVPHIPG

Result:
-0.191
0.53
0.0767
-0.951
-0.356
-0.756
0.0168

Please state soluble fraction (log2) for every sequence in the list that follows.
1. HMERAFRILELFDLKQDELPITEIAERTGLPISTAHRLLSTLETLGYIAQNPDNGRYRLGLQTFVLGSR
2. HMGPTLTDEEEVVLNLLEKNHPVLLSELKENAGLSNKKWDKAIKGLSAHKLAKVTKTDDGLFVHLS
3. HMNSKKRQAILESLRSVTDHPTAEMIYNRLKPEYPDLSLGTVYRNLAMFLEEGQVISVGTVDGQERYDAR
4. HMDREILWTNYVAARKQEFIASSIDTIGAEYLDNRRFWDTQFEREWTIIAERLASGFGLTDDILSIVGSDF
5. HMPAVVEFDVKPRGEVLVDGIWYGRIPELREVELRPGRHHLRVQNAGHPSLDLVVTLEPGERMTVTHTFA
6. HMSESLRDLVLSLIPEDGSTIGNRALITRLREDLPDLTDEDYHEVRDQLIAEGVLAKGRGQGGSVARANG
7. HMNDVLVGAIPESASGSRLDKVMPSVFPPYSRSQLQVWLKQGRILMGNGIPSPRLIVSGGEVLSLVVPELP

Result:
[-0.987, 0.0395, -0.306, -4.12, -0.102, 0.205, -0.971]
